Origin of measurements: PubChem BioAssay (NCI)

test system: BT-549 breast; experiment: NCI-60 one-dose screen, 48 h; conditions: 10 µM unless noted
This is part of a sample that, as a whole, favours compounds with a hit. Of some 83,000 tested, about 20% had one in any assay. Activity calls are given as the source filed them. How the source made its calls: active means growth percent below 10; inactive means the rest.
Outcome codes: 1 = active, -1 = inactive

compound	label.value
CNC(=O)c1[nH]cc(-c2ccc(OC)cc2)c1-c1cc(OC)c2c(c1OC)OCO2	-1
O=C1NC(=O)C(Cc2ccc(OCc3ccc(-c4ccc(Cl)cc4Cl)cc3)cc2)S1 (stereo unspecified)	-1
CN(C)S(=O)(=O)c1cccc(C(=O)Nc2nc(-c3ccc(F)c(F)c3)cs2)c1	-1
C=C(C)[C@@H]1CCC[C@]2(COS(=O)(=O)c3ccc(C)cc3)CC[C@]3(C)[C@@H](CC[C@@H]4[C@@]5(C)CCCNC(C)(C)[C@@H]5CC[C@]43C)[C@@H]12	-1
COc1ccc(CN2c3ccccc3Sc3ccccc32)cc1F	-1
COc1ccc(NC2=C(I)C(=O)c3ncccc3C2=O)cc1	1
COc1ccc(/C=N/C2=C(C#N)C(c3ccccc3)c3ccc4ccccc4c3O2)cc1 (stereo unspecified)	-1
N#CC1=C(N)Oc2c(ccc3ccccc23)C1c1ccccc1 (stereo unspecified)	1
O=C(Nc1nc(-c2ccc(Cl)cc2)nc2c1sc(=S)n2-c1ccccc1)C(F)(F)F	-1
COc1ccc(OC)c(/C=N/Nc2ncnc3c2c(C)nn3C)c1	-1
CCOC(=O)c1ccc(NC(=O)c2nc(-c3cc(OC)c(OC)c(OC)c3)n(-c3ccc(Cl)cc3)n2)cc1	-1
Fc1cccc(Oc2ccc(Nc3ncnc4ccc(OCCCN5CCOCC5)cc34)cc2Cl)c1	-1
Cn1ccnc1C(=O)/C=C/c1ccc(CC(=O)Nc2cc(C(F)(F)F)cc(C(F)(F)F)c2)cc1	-1
c1ccc2cc(C[n+]3ccn(CCCCCCCCCCn4cc[n+](Cc5ccc6ccccc6c5)c4)c3)ccc2c1	1
Cn1ccnc1C(=O)/C=C/c1ccc(C(=O)Nc2ccc(Cl)cc2)cc1	1
CCOC(=O)c1nn(-c2ccc(S(N)(=O)=O)cc2)c2nc(C)cc(=O)n12	-1
CC(=O)/C(=C\c1c(-c2ccccc2)[nH]c2ccccc12)S(C)(=O)=O	1
NS(=O)(=O)c1ccc(N=Nc2c(O)n(Cc3ccccc3)c3ccc(Cl)cc23)cc1	-1
C=C1C(=O)O[C@H]2[C@H]1CC/C(Cn1cc(-c3ccccc3)nn1)=C\CC[C@@]1(C)O[C@@H]21	1
COC(=O)/C=C1/SC(=Nc2ccc(C(F)(F)F)cc2)N(CCc2c[nH]c3ccc(O)cc23)C1=O	1
Oc1c(I)cc(I)cc1CNCc1ccccn1	-1
CS(=O)(=O)Nc1cc(-c2ccc3ncnc(Nc4ccc5c(cnn5Cc5cccc(F)c5)c4)c3c2)cnc1Cl	1
O=C(Nc1nc2ccc(C(=O)N3CCN(/C=C/c4ccccc4)CC3)cc2s1)c1ccc(NCCc2ccccc2)c([N+](=O)[O-])c1	-1
Cc1nc2sc(C(=O)Nc3cccc(Br)c3)c(N)c2cc1C(O)c1ccccc1 (stereo unspecified)	-1
Cc1ccc2c(c1)=C/C(=C\c1cc(-c3ccccc3)oc1O)C(=O)N=2	-1
CCC1=C[C@@H]2C[C@]3(C(=O)OC)c4[nH]c5ccccc5c4CC[N@+](CC(=O)Nc4cc5c(cc4OC)N(C)[C@H]4[C@@](O)(C(=O)OC)[C@H](OC(C)=O)[C@]6(CC)C=CCN7CC[C@]54[C@@H]76)(C2)[C@H]13	-1
C=C1C(=O)O[C@H]2[C@H]1CC/C(COC(=O)/C=C\C(=O)NCc1ccc(Cn3c(=O)sn(CCI)c3=O)cc1)=C\CC[C@@]1(C)O[C@@H]21	-1
Oc1c(Br)cc(Br)c2ccc(Cn3cc(-c4ccc(C(F)(F)F)cc4)nn3)nc12	-1
O=C1NC(=C(Cl)Cl)/C(=N\S(=O)(=O)NCc2ccccc2)N1	-1
N#Cc1ccc(O)c(C2=NCC(c3ccccc3)O2)c1 (stereo unspecified)	-1
COc1ccc(-c2ccc(=O)oc2-c2cc(OC)c(OC)c(OC)c2)cc1O	1
COc1ccc(-c2cc(-c3ccc(Cl)cc3)c(C#N)c(=O)n2Cc2ccc(C(=O)Nc3ccccc3N)cc2)cc1	-1
c1cc2c(ccc3[nH]c(-c4ccc5[nH]ncc5c4)c4c(c32)CCCC4)n1	-1
CN(C)CC1CCC(CN(C)C)C1=O (stereo unspecified)	-1
CC1=C2[C@@H](CC1)[C@]1(C)O[C@@](C(C)C)(C[C@H]1OC(=O)[C@H](C)O)[C@H]2OC(=O)/C=C/c1ccccc1	-1
CCOC(=O)n1cc(-c2nonc2-c2cn(C(=O)OCC)c3ccc(Br)cc23)c2ccccc21	-1
